- assay.system: Aminopeptidase N (Sus scrofa)
- experiment.notes: Inhibition of pig aminopeptidase N assessed as ACC fluorophore released after 30 mins using Alanine ACC as substrate
Consider the cut-off 2000 nM. If the recorded IC50 is strictly smaller, the label is yes (1); if not, the label is no (0).

Sample answers from the record:
>>> print(df.to_string())
                                   compound  label_class
0  CCCC(N)P(=O)(O)C(=S)NCc1ccc(OC)cc1 (stereo not drawn)       no (0)
1  CCC(N)P(=O)(O)C(O)CCc1ccccc1 (stereo not drawn)      yes (1)
2  CCCCC(N)P(=O)(O)C(O)c1ccc(O)cc1 (stereo not drawn)       no (0)
3  COc1ccc(CNC(=S)P(=O)(O)C(C)N)cc1 (stereo not drawn)       no (0)
4  CCC(N)P(=O)(O)C(=S)NCCCSC (stereo not drawn)      yes (1)
5  CC(N)P(=O)(O)C(=S)NCc1ccccc1 (stereo not drawn)      yes (1)
6  CCCCC(N)P(=O)(O)C(=S)NCCc1ccccc1 (stereo not drawn)      yes (1)
7  CC(C)CNC(=S)P(=O)(O)C(N)C(C)C (stereo not drawn)       no (0)
8  CC(C)CC(N)P(=O)(O)C(O)CCc1ccccc1 (stereo not drawn)      yes (1)
9  CNC(=S)P(=O)(O)C(N)CC(C)C (stereo not drawn)       no (0)

Field: below-cutoff. Rule: recorded IC50 strictly less than 2000 nM. Subject: CC(C)CC(O)P(=O)(O)C(N)c1ccccc1 (stereo not drawn) no (0)

Field: below-cutoff. Rule: recorded IC50 strictly less than 2000 nM. Subject: CCCCC(N)P(=O)(O)C(O)C(C)c1ccccc1 (stereo not drawn) yes (1)

Field: below-cutoff. Rule: recorded IC50 strictly less than 2000 nM. Subject: CC(C)CC(N)P(=O)(O)C(=S)NCc1ccccc1 (stereo not drawn) no (0)

###

- assay.system: Aminopeptidase N (Rattus norvegicus) (UniProt P15684)
- Sequence (P15684 whole entry): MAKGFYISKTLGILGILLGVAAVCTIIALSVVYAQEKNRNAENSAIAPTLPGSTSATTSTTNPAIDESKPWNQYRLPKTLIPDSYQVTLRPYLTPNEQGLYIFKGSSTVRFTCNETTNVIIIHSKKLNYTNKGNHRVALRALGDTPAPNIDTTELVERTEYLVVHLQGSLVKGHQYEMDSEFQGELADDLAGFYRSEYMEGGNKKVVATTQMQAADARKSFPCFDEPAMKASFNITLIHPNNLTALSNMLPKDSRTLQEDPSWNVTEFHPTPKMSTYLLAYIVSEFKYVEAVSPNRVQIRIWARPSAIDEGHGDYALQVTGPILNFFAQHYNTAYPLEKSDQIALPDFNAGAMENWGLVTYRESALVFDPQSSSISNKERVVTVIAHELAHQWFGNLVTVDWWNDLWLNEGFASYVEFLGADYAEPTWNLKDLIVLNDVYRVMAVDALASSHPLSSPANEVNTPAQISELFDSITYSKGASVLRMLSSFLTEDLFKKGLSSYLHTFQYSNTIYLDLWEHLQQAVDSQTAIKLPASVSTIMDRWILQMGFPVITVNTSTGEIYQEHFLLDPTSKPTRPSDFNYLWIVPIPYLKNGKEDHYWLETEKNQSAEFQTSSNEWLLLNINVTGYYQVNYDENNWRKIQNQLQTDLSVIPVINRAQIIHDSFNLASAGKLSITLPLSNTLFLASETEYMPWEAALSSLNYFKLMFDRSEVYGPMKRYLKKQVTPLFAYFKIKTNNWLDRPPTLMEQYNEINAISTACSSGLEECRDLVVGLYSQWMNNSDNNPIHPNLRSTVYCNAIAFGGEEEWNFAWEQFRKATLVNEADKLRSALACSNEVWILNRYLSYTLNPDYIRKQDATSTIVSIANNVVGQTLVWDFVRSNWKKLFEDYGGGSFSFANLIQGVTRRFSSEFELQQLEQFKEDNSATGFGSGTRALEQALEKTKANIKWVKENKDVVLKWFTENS
- experiment.notes: Inhibition of rat aminopeptidase N assessed as ACC fluorophore released after 30 mins using Alanine ACC as substrate
Assign IC50 to each entry below.
Answers are plain numbers, in nM.

>>> print(df.to_string())
                                   molecule  result_type  unit_name  reported_value
0  CC(C)CNC(=S)P(=O)(O)C(N)C(C)C (stereo unspecified)         IC50         nM            8950
1  NC(Cc1ccccc1)P(=O)(O)C(O)CCc1ccccc1 (stereo unspecified)         IC50         nM            1600
2  NC(c1ccccc1)P(=O)(O)C(O)c1ccccc1 (stereo unspecified)         IC50         nM             460

Give measured IC50 for every item shown.
1. CCCCC(N)P(=O)(O)C(O)CCc1ccccc1 (stereo unspecified)
2. CC(O)P(=O)(O)C(N)c1ccccc1 (stereo unspecified)
3. CC(C)CC(N)P(=O)(O)C(O)CCc1ccccc1 (stereo unspecified)
4. CCCC(N)P(=O)(O)C(=S)NCc1ccccc1 (stereo unspecified)

1. 520
2. 15200
3. 920
4. 2100

Give measured IC50 for every item shown.
1. CC(C)c1ccc(C(O)P(=O)(O)C(C)N)cc1 (stereo unspecified)
2. CC(C)C(N)P(=O)(O)C(O)CCc1ccccc1 (stereo unspecified)

1. 3500
2. 1100

Give measured IC50 for every item shown.
1. CCCCC(N)P(=O)(O)C(O)c1ccc(O)cc1 (stereo unspecified)
2. CCC(N)P(=O)(O)C(O)CCc1ccccc1 (stereo unspecified)
3. CCCCC(N)P(=O)(O)C(O)C(C)c1ccccc1 (stereo unspecified)
4. CCCC(N)P(=O)(O)C(=S)NCc1ccc(OC)cc1 (stereo unspecified)

1. 6200
2. 2400
3. 460
4. 2450

Give measured IC50 for every item shown.
1. CCC(N)P(=O)(O)C(=S)NCCCSC (stereo unspecified)
2. CCCCCCNC(=S)P(=O)(O)C(N)CC(C)C (stereo unspecified)
3. CC(C)CC(O)P(=O)(O)C(N)c1ccccc1 (stereo unspecified)
4. CC(C)CC(N)P(=O)(O)C(=S)NCCc1ccccc1 (stereo unspecified)
5. CCCCC(N)P(=O)(O)C(=S)NCCCSC (stereo unspecified)
6. CNC(=S)P(=O)(O)C(N)C(C)C (stereo unspecified)
7. CCCCC(N)P(=O)(O)C(=S)NCc1ccc(OC)cc1 (stereo unspecified)
8. CCCNC(=S)P(=O)(O)C(N)CCc1ccccc1 (stereo unspecified)

1: 2500; 2: 1700; 3: 4700; 4: 5400; 5: 610; 6: 21400; 7: 1050; 8: 1350

###

- assay.system: Aminopeptidase N (Sus scrofa)
- experiment.notes: Inhibition of pig aminopeptidase N assessed as ACC fluorophore released after 30 mins using Alanine ACC as substrate
result.type: IC50

Consider the reported IC50 for these molecules:
In [3]: df
Out[3]:
                                   molecule  result_type  reported_value
0  CCCC(N)P(=O)(O)C(=S)NCc1ccc(C(=O)O)cc1 (stereo unspecified)         IC50      > 20000 nM
1  CCCCC(N)P(=O)(O)C(=S)NCCCSC (stereo unspecified)         IC50          360 nM
2  CCCCCCNC(=S)P(=O)(O)C(N)C(C)C (stereo unspecified)         IC50         1700 nM
3  CCCCC(N)P(=O)(O)C(=S)NCc1ccccc1 (stereo unspecified)         IC50          620 nM
4  CCCCC(N)P(=O)(O)C(=S)NCc1ccc(OC)cc1 (stereo unspecified)         IC50          460 nM

Give measured IC50 for every item shown.
1. CSCCCNC(=S)P(=O)(O)C(C)N (stereo unspecified)
2. COC(=O)c1ccccc1CNC(=S)P(=O)(O)C(N)CC(C)C (stereo unspecified)
3. CNC(=S)P(=O)(O)C(N)C(C)C (stereo unspecified)

["2450 nM", "> 20000 nM", "10200 nM"]

Give measured IC50 for every item shown.
1. CCCC(N)P(=O)(O)C(=S)NCCCSC (stereo unspecified)
2. CCCCC(N)P(=O)(O)C(=S)NCC(=O)OCc1ccccc1 (stereo unspecified)

1: 1950 nM; 2: > 20000 nM

Give measured IC50 for every item shown.
1. CC(N)P(=O)(O)C(=S)NCCc1ccccc1 (stereo unspecified)
2. CCOC(=O)c1ccc(CNC(=S)P(=O)(O)C(N)CCc2ccccc2)cc1 (stereo unspecified)
3. NC(CCc1ccccc1)P(=O)(O)C(=S)NCc1ccccc1 (stereo unspecified)
4. CC(C)CC(N)P(=O)(O)C(=S)NCCc1ccccc1 (stereo unspecified)
5. NC(Cc1ccccc1)P(=O)(O)C(O)CCc1ccccc1 (stereo unspecified)
6. CCCC(N)P(=O)(O)C(=S)NCCc1ccccc1 (stereo unspecified)
7. CC(O)P(=O)(O)C(N)c1ccccc1 (stereo unspecified)

1. 5200 nM
2. > 20000 nM
3. 2300 nM
4. 4200 nM
5. 660 nM
6. 1350 nM
7. 48000 nM

###

Assign IC50 to each entry below.
- assay.system: Aminopeptidase N (Sus scrofa) (UniProt P15145)
- Sequence (whole entry): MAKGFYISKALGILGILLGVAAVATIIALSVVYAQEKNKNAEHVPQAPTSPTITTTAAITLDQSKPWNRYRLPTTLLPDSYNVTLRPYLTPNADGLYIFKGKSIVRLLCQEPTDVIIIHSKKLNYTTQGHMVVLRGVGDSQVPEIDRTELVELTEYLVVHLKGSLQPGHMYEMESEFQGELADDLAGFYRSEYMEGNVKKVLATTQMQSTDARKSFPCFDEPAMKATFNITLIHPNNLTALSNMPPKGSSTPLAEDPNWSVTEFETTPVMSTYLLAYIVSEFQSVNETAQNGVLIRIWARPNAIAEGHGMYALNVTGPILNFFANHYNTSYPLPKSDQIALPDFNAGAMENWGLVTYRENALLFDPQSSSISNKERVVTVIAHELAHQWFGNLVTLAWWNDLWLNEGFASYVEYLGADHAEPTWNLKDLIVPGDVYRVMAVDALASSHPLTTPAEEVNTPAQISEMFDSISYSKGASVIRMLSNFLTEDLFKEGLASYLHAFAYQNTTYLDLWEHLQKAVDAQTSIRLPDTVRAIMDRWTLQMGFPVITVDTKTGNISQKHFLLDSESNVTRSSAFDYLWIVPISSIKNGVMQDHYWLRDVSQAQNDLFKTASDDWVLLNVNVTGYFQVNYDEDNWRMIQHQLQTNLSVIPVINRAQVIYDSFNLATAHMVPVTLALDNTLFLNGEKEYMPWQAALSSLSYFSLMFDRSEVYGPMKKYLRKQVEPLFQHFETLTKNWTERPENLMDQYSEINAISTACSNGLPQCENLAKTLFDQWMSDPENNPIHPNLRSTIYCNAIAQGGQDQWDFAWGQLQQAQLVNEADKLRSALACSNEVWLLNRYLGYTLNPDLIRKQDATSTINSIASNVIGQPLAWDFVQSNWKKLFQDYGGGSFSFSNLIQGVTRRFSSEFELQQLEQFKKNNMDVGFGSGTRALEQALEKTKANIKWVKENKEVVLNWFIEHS
- experiment.notes: Inhibition of pig aminopeptidase N assessed as ACC fluorophore released after 30 mins using Alanine ACC as substrate
Answers are plain numbers, in nM.

Consider the reported IC50 for these molecules:
                                   molecule  reported_value
0  CCCC(N)P(=O)(O)C(=S)NCc1ccccc1 (configuration not stated)            1600
1  CCCCCCNC(=S)P(=O)(O)C(N)CC(C)C (configuration not stated)            1400
2  NC(CCc1ccccc1)P(=O)(O)C(O)CCc1ccccc1 (configuration not stated)             220
3  NC(c1ccccc1)P(=O)(O)C(O)CCc1ccccc1 (configuration not stated)             240

Give measured IC50 for every item shown.
1. CCCNC(=S)P(=O)(O)C(N)CCc1ccccc1 (configuration not stated)
2. CCCCC(N)P(=O)(O)C(O)CCc1ccccc1 (configuration not stated)

[1450, 210]

Give measured IC50 for every item shown.
1. CC(C)c1ccc(C(O)P(=O)(O)C(C)N)cc1 (configuration not stated)
2. CCCC(N)P(=O)(O)C(O)Cc1ccccc1 (configuration not stated)

1: 1200; 2: 950

Which IC50 value belongs to CSCCCNC(=S)P(=O)(O)C(N)CCc1ccccc1 (configuration not stated) ? 1550
